# Method Summary: Plasma concentration in Beagle dog at 1 mg/kg, iv after 0.25 hrs
# Format: ADME, organism-based, Canis lupus familiaris
# Parameters: dose 1 mg/kg, route intravenous
Measured Quantity: concentration at 0.25 h (ng/mL)
Use ng/mL as the unit, but write only the number.

# molecule Cc1c(N2[C@@H]3CC[C@H]2C[C@@](C)(O)C3)ccc(C#N)c1Cl ; its concentration at 0.25 h = 231

* * *

# Method Summary: Volume of distribution at steady state in Sprague-Dawley rat at 1 mg/kg, iv
# Format: ADME, organism-based
# Parameters: dose 1 mg/kg, route intravenous
# Condition Description: in vivo, read-out: Vdss
Measured Quantity: Vd (L/kg)
The reply should contain only the number, in L/kg.

Record Cc1c(N2[C@@H]3CC[C@H]2C[C@@](C)(O)C3)ccc(C#N)c1Cl , field Vd: 3.91
